Cited source for all entries: ChEMBL document CHEMBL1781999

- tgt: Dihydroorotate dehydrogenase (quinone), mitochondrial (Homo sapiens, UniProt Q02127)
- Sequence (Q02127 whole entry): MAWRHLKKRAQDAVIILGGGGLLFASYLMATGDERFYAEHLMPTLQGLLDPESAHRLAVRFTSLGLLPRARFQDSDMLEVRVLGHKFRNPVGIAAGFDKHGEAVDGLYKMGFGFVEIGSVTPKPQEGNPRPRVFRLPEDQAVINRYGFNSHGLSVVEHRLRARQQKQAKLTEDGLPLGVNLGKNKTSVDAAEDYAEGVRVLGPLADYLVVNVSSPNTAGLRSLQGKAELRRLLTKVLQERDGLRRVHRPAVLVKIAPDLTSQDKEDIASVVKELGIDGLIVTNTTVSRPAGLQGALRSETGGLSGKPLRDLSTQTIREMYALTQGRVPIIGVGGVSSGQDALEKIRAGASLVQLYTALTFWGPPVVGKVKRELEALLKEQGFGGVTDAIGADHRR
- measurement description: Inhibition of His6-tagged recombinant human dihydroorotate dehydrogenase expressed in Escherichia coli using L-dihydroorotate as substrate after 5 to 10 mins by DCIP dye-based assay
pIC50: −log10 of the molar value.
// reported pIC50 per item
measurement name: pIC50

[[record]]
structure_smiles_string = "CCCCc1ccc(Nc2cc(C)nc3ncnn23)cc1"
tgt = "Dihydroorotate dehydrogenase (quinone), mitochondrial (Homo sapiens, UniProt Q02127)"
reported_result = "< 4.00"

[[record]]
structure_smiles_string = "CCc1ccc(Nc2cc(C)nc3ncnn23)cc1"
tgt = "Dihydroorotate dehydrogenase (quinone), mitochondrial (Homo sapiens, UniProt Q02127)"
reported_result = "< 4.00"

[[record]]
structure_smiles_string = "FC(F)(F)c1ccc(Nc2cc(C(F)(F)F)nc3ncnn23)cc1"
tgt = "Dihydroorotate dehydrogenase (quinone), mitochondrial (Homo sapiens, UniProt Q02127)"
reported_result = "< 4.00"

[[record]]
structure_smiles_string = "CCc1cc(Nc2ccc(C(F)(F)F)cc2)n2ncnc2n1"
tgt = "Dihydroorotate dehydrogenase (quinone), mitochondrial (Homo sapiens, UniProt Q02127)"
reported_result = "< 4.00"

[[record]]
structure_smiles_string = "Cc1cc(Nc2ccc3c(c2)OCO3)n2ncnc2n1"
tgt = "Dihydroorotate dehydrogenase (quinone), mitochondrial (Homo sapiens, UniProt Q02127)"
reported_result = "< 4.00"

[[record]]
structure_smiles_string = "Cc1cc(Nc2ccc(C(C)C)cc2)n2ncnc2n1"
tgt = "Dihydroorotate dehydrogenase (quinone), mitochondrial (Homo sapiens, UniProt Q02127)"
reported_result = "< 4.00"

[[record]]
structure_smiles_string = "Cc1cc(Nc2cc(F)c(C(F)(F)F)c(F)c2)n2ncnc2n1"
tgt = "Dihydroorotate dehydrogenase (quinone), mitochondrial (Homo sapiens, UniProt Q02127)"
reported_result = "< 4.52"

[[record]]
structure_smiles_string = "CCc1c(C)nc2ncnn2c1Nc1ccc(OC(F)(F)F)cc1"
tgt = "Dihydroorotate dehydrogenase (quinone), mitochondrial (Homo sapiens, UniProt Q02127)"
reported_result = "< 4.00"

[[record]]
structure_smiles_string = "CCCc1c(C)nc2ncnn2c1Nc1ccc(C)cc1"
tgt = "Dihydroorotate dehydrogenase (quinone), mitochondrial (Homo sapiens, UniProt Q02127)"
reported_result = "< 4.00"

[[record]]
structure_smiles_string = "C=Cc1ccc(Nc2cc(C)nc3ncnn23)cc1"
tgt = "Dihydroorotate dehydrogenase (quinone), mitochondrial (Homo sapiens, UniProt Q02127)"
reported_result = "< 4.00"

[[record]]
structure_smiles_string = "Cc1ccc(Nc2c3c(nc4ncnn24)CCC3)cc1F"
tgt = "Dihydroorotate dehydrogenase (quinone), mitochondrial (Homo sapiens, UniProt Q02127)"
reported_result = "< 4.00"

[[record]]
structure_smiles_string = "CCc1c(C)nc2ncnn2c1Nc1ccc(C(C)C)cc1"
tgt = "Dihydroorotate dehydrogenase (quinone), mitochondrial (Homo sapiens, UniProt Q02127)"
reported_result = "< 4.00"

[[record]]
structure_smiles_string = "Cc1cc(Nc2ccc(SC(F)(F)F)cc2)n2ncnc2n1"
tgt = "Dihydroorotate dehydrogenase (quinone), mitochondrial (Homo sapiens, UniProt Q02127)"
reported_result = "< 4.30"


----------
// reported fraction unbound per item
- measurement description: Plasma protein binding in human by albumin chromatographic method
- Format: ADME, cell-free
- condition info: read-out: PPB (converted)
measurement name: fraction unbound

[[record]]
structure_smiles_string = "Cc1cc(Nc2ccc3c(c2)CCCC3)n2ncnc2n1"
reported_result = 0.045

[[record]]
structure_smiles_string = "Cc1cc(Nc2ccc(C(C)C)cc2)n2ncnc2n1"
reported_result = 0.087

[[record]]
structure_smiles_string = "C#Cc1ccc(Nc2cc(C)nc3ncnn23)cc1"
reported_result = 0.182

[[record]]
structure_smiles_string = "Cc1cc(NC2Cc3ccccc3C2)n2ncnc2n1"
reported_result = 0.239

[[record]]
structure_smiles_string = "Cc1cc(Nc2ccc(S(F)(F)(F)(F)F)cc2)n2ncnc2n1"
reported_result = 0.046

[[record]]
structure_smiles_string = "CCc1nc(N)nc(N)c1-c1ccc(Cl)cc1"
reported_result = 0.13


----------
- measurement description: Aqueous solubility of the compound in phosphate buffer at pH 6.5
- Type: physicochemical
- condition info: phosphate buffer, read-out: solubility
measurement name: solubility (µM)

[[record]]
structure_smiles_string = "Cc1cc(NC2Cc3ccccc3C2)n2ncnc2n1"
measurement_name = "solubility"
reported_result = 188

[[record]]
structure_smiles_string = "CCCc1ccc(Nc2cc(C)nc3ncnn23)cc1"
measurement_name = "solubility"
reported_result = 187

[[record]]
structure_smiles_string = "Cc1cc(Nc2ccc3c(c2)CCCC3)n2ncnc2n1"
measurement_name = "solubility"
reported_result = 89

[[record]]
structure_smiles_string = "Cc1cc(Nc2ccc(SC(F)(F)F)cc2)n2ncnc2n1"
measurement_name = "solubility"
reported_result = 5

[[record]]
structure_smiles_string = "Cc1cc(Nc2ccc(C(F)(F)F)cc2)n2ncnc2n1"
measurement_name = "solubility"
reported_result = 21

[[record]]
structure_smiles_string = "Cc1cc(Nc2ccc3c(c2)OCO3)n2ncnc2n1"
measurement_name = "solubility"
reported_result = 186

[[record]]
structure_smiles_string = "Cc1cc(Nc2cc(F)c(C(F)(F)F)c(F)c2)n2ncnc2n1"
measurement_name = "solubility"
reported_result = 9

[[record]]
structure_smiles_string = "Cc1cc(Nc2ccc3sccc3c2)n2ncnc2n1"
measurement_name = "solubility"
reported_result = 22

[[record]]
structure_smiles_string = "Cc1cc(Nc2ccc(C(C)(C)C)cc2)n2ncnc2n1"
measurement_name = "solubility"
reported_result = 11

[[record]]
structure_smiles_string = "Cc1cc(Nc2ccc3c(c2)CCC3)n2ncnc2n1"
measurement_name = "solubility"
reported_result = 47

[[record]]
structure_smiles_string = "C=Cc1ccc(Nc2cc(C)nc3ncnn23)cc1"
measurement_name = "solubility"
reported_result = 25


----------
- System: Liver
- measurement description: Intrinsic clearance in mouse liver microsome assessed per mg of protein at 1 uM after 60 mins by LC-MS analysis
- Format: ADME
- condition info: microsomes, 1 h
The label depends only on CL: met if it is at least 200 µL/min/mg, not met if it is smaller.

[[record]]
molecule = "Cc1cc(Nc2ccc3c(c2)CCCC3)n2ncnc2n1"
tgt = "Liver"
category_label = "met"

[[record]]
molecule = "C=Cc1ccc(Nc2cc(C)nc3ncnn23)cc1"
tgt = "Liver"
category_label = "not met"

[[record]]
molecule = "Cc1cc(Nc2ccc(N(C)C)cc2)n2ncnc2n1"
tgt = "Liver"
category_label = "met"

[[record]]
molecule = "C#Cc1ccc(Nc2cc(C)nc3ncnn23)cc1"
tgt = "Liver"
category_label = "not met"

[[record]]
molecule = "Cc1cc(Nc2ccc3c(c2)CCC3)n2ncnc2n1"
tgt = "Liver"
category_label = "met"

[[record]]
molecule = "Cc1cc(Nc2ccc3sccc3c2)n2ncnc2n1"
tgt = "Liver"
category_label = "not met"

[[record]]
molecule = "Cc1cc(Nc2ccc(SC(F)(F)F)cc2)n2ncnc2n1"
tgt = "Liver"
category_label = "not met"

[[record]]
molecule = "Cc1cc(NC2CCc3ccccc3C2)n2ncnc2n1 (stereo not drawn)"
tgt = "Liver"
category_label = "not met"


----------
- measurement description: Plasma protein binding in human by albumin chromatographic method
- Type: ADME, cell-free
- condition info: read-out: PPB (converted)
// reported fraction unbound per item
measurement name: fraction unbound

[[record]]
structure_smiles_string = "Cc1cc(Nc2ccc(SC(F)(F)F)cc2)n2ncnc2n1"
measurement_name = "fraction unbound"
reported_result = 0.039

[[record]]
structure_smiles_string = "Cc1cc(Nc2ccc(C(F)(F)F)cc2)n2ncnc2n1"
measurement_name = "fraction unbound"
reported_result = 0.131

[[record]]
structure_smiles_string = "CCCCc1ccc(Nc2cc(C)nc3ncnn23)cc1"
measurement_name = "fraction unbound"
reported_result = 0.033

[[record]]
structure_smiles_string = "Cc1cc(Nc2ccc(C(C)(C)C)c(F)c2)n2ncnc2n1"
measurement_name = "fraction unbound"
reported_result = 0.036

[[record]]
structure_smiles_string = "Cc1cc(Nc2ccc3ccccc3c2)n2ncnc2n1"
measurement_name = "fraction unbound"
reported_result = 0.062

[[record]]
structure_smiles_string = "Cc1cc(Nc2ccc3c(c2)CCC3)n2ncnc2n1"
measurement_name = "fraction unbound"
reported_result = 0.075

[[record]]
structure_smiles_string = "CCc1ccc(Nc2cc(C)nc3ncnn23)cc1"
measurement_name = "fraction unbound"
reported_result = 0.12

[[record]]
structure_smiles_string = "C=Cc1ccc(Nc2cc(C)nc3ncnn23)cc1"
measurement_name = "fraction unbound"
reported_result = 0.156

[[record]]
structure_smiles_string = "Cc1cc(Nc2ccc(C3CC3)cc2)n2ncnc2n1"
measurement_name = "fraction unbound"
reported_result = 0.132

[[record]]
structure_smiles_string = "Cc1cc(Nc2cc(F)c(C(F)(F)F)c(F)c2)n2ncnc2n1"
measurement_name = "fraction unbound"
reported_result = 0.034

[[record]]
structure_smiles_string = "Cc1cc(Nc2ccc(C(C)(C)C)cc2)n2ncnc2n1"
measurement_name = "fraction unbound"
reported_result = 0.068

[[record]]
structure_smiles_string = "CCCc1ccc(Nc2cc(C)nc3ncnn23)cc1"
measurement_name = "fraction unbound"
reported_result = 0.065

[[record]]
structure_smiles_string = "Cc1cc(Nc2ccc3sccc3c2)n2ncnc2n1"
measurement_name = "fraction unbound"
reported_result = 0.102

